Values were extracted from patent US11767322B2.

- System: MLKL phosphorylation in HT29-L23 human colorectal adenocarcinoma cells
- test.description: MLKL phosphorylation high-content assay
- Assay type: cell-based
- experimental.setup: Homo sapiens, 6 h, read-out: pMLKL IC50, HT29-L23 cells; necroptosis induced with TNFα, SMAC mimetic and Z-VAD, 6 h; maximal inhibition defined by Nec1s
quantity: IC50 (nM)
Number in nM, nothing else.

Illustrative cases are given below, each with its answer.
INSERT INTO results (compound, value_observed) VALUES
  ('Cc1ccc(-c2ccn3nc(N)nc3c2)c(F)c1C(=O)NCCC(O)c1ccc(Cl)c(Cl)c1 (single isomer, unassigned)', 0.7),
  ('Cc1ccc(-c2ccn3nc(N)nc3c2)c(F)c1C(=O)NCCCC1CCCCC1', 1.1),
  ('[2H]C([2H])([2H])c1ccc(C(O)C(F)(F)CNC(=O)c2c(C([2H])([2H])[2H])ccc(-c3ccn4nc(N)nc4c3)c2F)cc1 (single isomer, unassigned)', 0.8),
  ('[2H]C([2H])([2H])c1ccc(-c2ccn3nc(N)nc3c2)c(F)c1C(=O)NC[C@H](F)[C@](C)(O)c1ccc(F)cc1', 6.6),
  ('Cc1ccc(-c2ccn3nc(N)nc3c2)c(F)c1C(=O)NCCC(C)(F)c1ccc(Cl)cc1 (centres unmarked)', 1),
  ('CC(CCNC(=O)c1cccc(-c2ccn3nc(N)nc3c2)c1)c1ccccc1 (centres unmarked)', 25),
  ('Cc1ccc(-c2ccn3nc(N)nc3c2)c(F)c1C(=O)NCCC(O)C1CCCC1 (centres unmarked)', 21),
  ('[2H]C([2H])([2H])OC(c1ccc(F)cc1)C(F)(F)CNC(=O)c1c(C)ccc(-c2ccn3nc(N)nc3c2)c1F (single isomer, unassigned)', 0.6),
  ('Cc1ccc(-c2ccn3nc(N)nc3c2)c(F)c1C(=O)NCC[C@H](O)c1ccc(Cl)cc1', 0.8),
  ('CCc1ccc(-c2ccn3nc(N)nc3c2)c(F)c1C(=O)NCC[C@H](O)c1ccc(Cl)cc1', 0.6);

Reported IC50 for [2H]C([2H])([2H])C(O)(c1ccc(F)cc1)C(F)CNC(=O)c1c(C(F)F)ccc(-c2ccn3nc(N)nc3c2)c1F (single isomer, unassigned) was 1

Measured IC50, Cc1ccc(-c2ccn3nc(N)nc3c2)c(F)c1C(=O)NCCC(C)(C)c1ccc(Cl)cc1 : 1.7

The compound listed as Nc1nc2cc(-c3ccc(Cl)c(C(=O)NCC(F)(F)C(O)c4ccc(Cl)c(F)c4)c3F)ccn2n1 (centres unmarked) has a reported IC50 of 0.7

// C#Cc1ccc([C@@H](O)CCNC(=O)c2c(C)ccc(-c3ccn4nc(N)nc4c3)c2F)cc1 : IC50 value = 2.5
